Data origin, for the record: paper PMC11206297

Kindly state pIC50 for each of the entries shown.
- Tested on: MDA-MB-231
- PROCEDURE_TEXT: MTT cell viability assay, MDA-MB-231
- Format: cell-based
- MEASUREMENT_CONDITIONS: Homo sapiens, 72 h, mean ± SEM, read-out: Cytotoxicity IC50 MDA-MB-231
Would you please state pIC50, meaning minus log10 of the concentration in mol/L, as a bare number?

What the record says about NC(=O)c1ccccc1OCc1ccc(F)c(C(=O)N2CCN(S(=O)(=O)c3ccc(NC(=O)NCc4cccnc4)cc3)CC2)c1 : pIC50 is 4.99

What the record says about NC(=O)c1cccc2[nH]c(C(=O)N3CCN(S(=O)(=O)c4ccc(NC(=O)NCc5cccnc5)cc4)CC3)nc12 : pIC50 is 4.86

What the record says about O=C(/C=C/c1cccnc1)NCCCCC1CCN(C(=O)c2ccccc2)CC1 [FK866, reference compound] : pIC50 is 5.42

What the record says about O=C(c1cc(Cc2n[nH]c(=O)c3ccccc23)ccc1F)N1CCN(C(=O)C2CC2)CC1 [Olaparib, reference compound] : pIC50 is 5.17

What the record says about O=C(NCc1cccnc1)Nc1ccc(S(=O)(=O)N2CCN(C(=O)CCc3nc4ccccc4c(=O)[nH]3)CC2)cc1 : pIC50 is 4.96

What the record says about NC(=O)c1cc(F)ccc1OCc1ccc(F)c(C(=O)N2CCN(S(=O)(=O)c3ccc(NC(=O)NCc4cccnc4)cc3)CC2)c1 : pIC50 is 5.09

What the record says about NC(=O)c1cc(F)ccc1OCc1cccc(C(=O)N2CCN(S(=O)(=O)c3ccc(NC(=O)NCc4cccnc4)cc3)CC2)c1 : pIC50 is 5.06
